Entry source: patent US10745392B2

SYSTEM_UNDER_TEST: NaV1.5 (Homo sapiens (Human), UniProt Q14524)
Sequence (Q14524 other isoform, or with tags, fused parts or gaps): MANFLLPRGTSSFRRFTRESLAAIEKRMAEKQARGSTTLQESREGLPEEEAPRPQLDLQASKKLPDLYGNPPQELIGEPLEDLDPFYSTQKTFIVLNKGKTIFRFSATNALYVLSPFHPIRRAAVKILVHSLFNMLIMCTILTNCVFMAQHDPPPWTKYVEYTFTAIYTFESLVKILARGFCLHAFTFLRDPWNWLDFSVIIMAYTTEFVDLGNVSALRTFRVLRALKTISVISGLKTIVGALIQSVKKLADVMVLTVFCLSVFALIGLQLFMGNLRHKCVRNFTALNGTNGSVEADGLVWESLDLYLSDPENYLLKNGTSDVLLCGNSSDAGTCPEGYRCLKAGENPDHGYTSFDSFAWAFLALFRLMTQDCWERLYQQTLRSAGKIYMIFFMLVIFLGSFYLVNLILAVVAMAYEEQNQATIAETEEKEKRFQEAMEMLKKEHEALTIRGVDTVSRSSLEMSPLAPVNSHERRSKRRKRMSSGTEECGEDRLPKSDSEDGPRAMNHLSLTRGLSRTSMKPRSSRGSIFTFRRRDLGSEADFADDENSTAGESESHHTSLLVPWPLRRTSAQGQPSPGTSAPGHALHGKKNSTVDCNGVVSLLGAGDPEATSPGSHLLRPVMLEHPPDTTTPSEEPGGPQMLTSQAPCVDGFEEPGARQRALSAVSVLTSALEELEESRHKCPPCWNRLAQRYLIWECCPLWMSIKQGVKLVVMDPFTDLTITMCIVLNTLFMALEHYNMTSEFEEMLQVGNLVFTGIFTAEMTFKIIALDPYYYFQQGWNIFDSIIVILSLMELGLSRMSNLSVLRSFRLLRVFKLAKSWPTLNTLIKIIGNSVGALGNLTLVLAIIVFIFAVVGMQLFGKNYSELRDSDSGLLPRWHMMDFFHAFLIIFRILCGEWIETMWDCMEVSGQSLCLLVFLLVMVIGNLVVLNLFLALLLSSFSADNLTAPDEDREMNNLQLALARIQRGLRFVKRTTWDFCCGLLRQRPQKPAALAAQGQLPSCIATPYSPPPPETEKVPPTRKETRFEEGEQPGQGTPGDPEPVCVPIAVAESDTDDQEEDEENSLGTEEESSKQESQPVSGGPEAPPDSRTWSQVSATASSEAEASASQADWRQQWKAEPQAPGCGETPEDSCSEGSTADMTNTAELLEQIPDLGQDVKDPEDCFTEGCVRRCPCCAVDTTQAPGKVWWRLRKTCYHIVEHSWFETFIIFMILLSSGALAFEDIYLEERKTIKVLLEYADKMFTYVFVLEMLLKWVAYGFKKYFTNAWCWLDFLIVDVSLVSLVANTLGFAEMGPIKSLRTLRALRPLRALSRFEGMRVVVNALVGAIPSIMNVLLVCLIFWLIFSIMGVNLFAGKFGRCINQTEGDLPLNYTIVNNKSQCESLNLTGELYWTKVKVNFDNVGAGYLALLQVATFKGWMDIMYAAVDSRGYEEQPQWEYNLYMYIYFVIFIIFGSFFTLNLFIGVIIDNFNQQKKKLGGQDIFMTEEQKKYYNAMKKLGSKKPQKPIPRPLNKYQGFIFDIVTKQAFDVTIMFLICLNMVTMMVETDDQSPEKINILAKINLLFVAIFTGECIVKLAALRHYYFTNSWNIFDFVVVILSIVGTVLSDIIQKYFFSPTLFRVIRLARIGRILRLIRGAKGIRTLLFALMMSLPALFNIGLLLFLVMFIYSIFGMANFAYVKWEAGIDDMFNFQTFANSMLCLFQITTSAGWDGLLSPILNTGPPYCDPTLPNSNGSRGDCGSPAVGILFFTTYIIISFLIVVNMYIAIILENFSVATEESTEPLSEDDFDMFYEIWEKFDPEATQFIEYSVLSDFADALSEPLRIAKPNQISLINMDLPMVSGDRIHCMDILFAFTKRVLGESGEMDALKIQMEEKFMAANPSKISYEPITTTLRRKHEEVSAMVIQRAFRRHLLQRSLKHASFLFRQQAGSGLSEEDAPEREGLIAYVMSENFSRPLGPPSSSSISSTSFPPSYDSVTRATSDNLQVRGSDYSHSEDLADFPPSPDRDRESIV
MEASUREMENT_PROTOCOL: Sodium Influx Assay (Flux) NaV1.5
PROPERTY_LABEL: IC50

{"MOLECULE": "C[C@H](c1c(F)ccc(F)c1CNc1cc(F)c(S(=O)(=O)Nc2cscn2)c(F)c1)N1C2CCC1CC2 (single isomer, unassigned) [Example 15b]", "PROPERTY_LABEL": "IC50", "REPORTED": "> 30 µM"}

Then there is this molecule:
For this molecule ( C[C@@H](c1c(F)ccc(F)c1CNc1cc(F)c(S(=O)(=O)Nc2cscn2)c(F)c1)N1C2CCC1CC2 (single isomer, unassigned) [Example 15a] ), measured IC50 is > 30 µM

====

SYSTEM_UNDER_TEST: NaV1.6 (Homo sapiens (Human))
MEASUREMENT_PROTOCOL: Sodium Influx Assay (Flux) NaV1.6
RUN_PARAMETERS: Trex HEK293 cells, ANG2 dye, inhibition of sodium ion influx
Measured log10 of IC50, listed per entry for reference.
// units: µM (pre-log); metric: IC50; scale: log10

{"MOLECULE": "COc1ccc(F)c(CNc2cc(F)c(S(=O)(=O)Nc3cscn3)c(F)c2)c1CN(C)C(C)C", "PROPERTY_LABEL": "log10 of IC50", "REPORTED": -1.57}
{"MOLECULE": "COc1ccc(F)c(CNc2cc(F)c(S(=O)(=O)Nc3cscn3)c(F)c2)c1CN1C2CCC1CC2 [Example 11, 2,2,2-trifluoroacetate]", "PROPERTY_LABEL": "log10 of IC50", "REPORTED": -2.70}
{"MOLECULE": "Cc1c(NCc2c(F)cccc2CN2C3CCC2CC3)ccc(S(=O)(=O)Nc2cscn2)c1F [Example 7, 2,2,2-trifluoroacetate]", "PROPERTY_LABEL": "log10 of IC50", "REPORTED": -0.74}
{"MOLECULE": "COc1ccc(F)c(CNc2ccc(S(=O)(=O)Nc3cscn3)c(F)c2F)c1CN(C)C(C)C", "PROPERTY_LABEL": "log10 of IC50", "REPORTED": -1.51}

Then there is this molecule:
For this molecule ( COc1ccc(F)c(CNc2cc(F)c(S(=O)(=O)Nc3cscn3)cc2C)c1CN(C)C(C)C [Example 18, 2,2,2-trifluoroacetate] ), measured log10 of IC50 is -1.80

====

Measured IC50, listed per entry for reference.
SYSTEM_UNDER_TEST: UniProtKB P35498
MEASUREMENT_PROTOCOL: Sodium Influx Assay (Flux) NaV1.1
RUN_PARAMETERS: Trex HEK293 cells, ANG2 dye, inhibition of sodium ion influx
Express the result in µM but write the number alone.

{"COMPOUND": "O=S(=O)(Nc1cscn1)c1c(F)cc(NCc2c(F)ccc(F)c2CN2C3CCC2CC3)cc1F [Example 10]", "MEASURE_UNIT": "µM", "IC50": 7.93}

For this compound ( O=S(=O)(Nc1cscn1)c1c(F)cc(NCc2c(F)cccc2CN2C3CCC2CC3)cc1F [Example 9, 2,2,2-trifluoroacetate] ), measured IC50 is 7.84

====

Measured pIC50, listed per entry for reference.
SYSTEM_UNDER_TEST: UniProt P35498
MEASUREMENT_PROTOCOL: Sodium Influx Assay (Flux) NaV1.1
RUN_PARAMETERS: Trex HEK293 cells, ANG2 dye, inhibition of sodium ion influx
pIC50: −log10 of the molar value.

{"COMPOUND": "Cc1c(NCc2c(F)cccc2CN2C3CCC2CC3)ccc(S(=O)(=O)Nc2ccon2)c1F [Example 5, 2,2,2-trifluoroacetate]", "PROPERTY_LABEL": "pIC50", "REPORTED": "< 4.52"}

For this compound ( CC(c1c(F)ccc(F)c1CNc1cc(F)c(S(=O)(=O)Nc2cscn2)c(F)c1)N1C2CCC1CC2 (stereo not drawn) [Example 14, 2,2,2-trifluoroacetate] ), measured pIC50 is < 4.52

For this compound ( COc1ccc(F)c(CNc2ccc(S(=O)(=O)Nc3cscn3)c(F)c2F)c1CN(C)C(C)C ), measured pIC50 is < 4.52
